Data credit: ChEMBL document CHEMBL1144514

Quick reference for CC50 among some molecules
assay: Cytotoxicity against CEM174 cells; format: cell-based; conditions: human, read-out: TC50 (the source's name)
readout_name: CC50

{"columns": ["compound", "experimental_value"],
 "data": [
  ["CCN(CC)CC[n+]1c(SCC(=O)NCCCNC(=N)N)[nH]c2c(C)nc(N(CC)CC)nc21", "> 100 µM"],
  ["CCN(CC)c1nc(C)c2[nH]c(SCC(=O)NCCCNC(=N)N)nc2n1", "> 100 µM"],
  ["CCN(CC)c1nc(C)c2[nH]c(SCC(=O)NCCN)[n+](CCCN(C)C)c2n1", "> 100 µM"],
  ["Cc1cn([C@H]2C[C@H](N=[N+]=[N-])[C@@H](CO)O2)c(=O)[nH]c1=O", "> 100 µM"],
  ["CCN(CC)c1nc(C)c2[nH]c(SCC(=O)NCCCNC(=N)N)[n+](CCCN(C)C)c2n1", "> 100 µM"]
]}

----------
test system: 293T; experiment: Inhibition of Tat-mediated transactivation in human 293T cells assessed as CAT expression at 30 uM; type: cell-based; settings: Human immunodeficiency virus 1
Attribute: inhibition

{"columns": ["compound", "inhibition (%)"],
 "data": [
  ["CCN(CC)c1nc(C)c2[nH]c(SCC(=O)NCCCN)nc2n1", 58.4],
  ["CCN(CC)CC[n+]1c(SCC(=O)NCCN)[nH]c2c(C)nc(N(CC)CC)nc21", 43.1],
  ["CCN(CC)c1nc(C)c2[nH]c(SCC(=O)NCCCNC(=N)N)nc2n1", 57.1],
  ["CCN(CC)c1nc(C)c2[nH]c(SCC(=O)NCCN)[n+](CCCN(C)C)c2n1", 57.7],
  ["CCN(CC)CC[n+]1c(SCC(=O)NCCCN)[nH]c2c(C)nc(N(CC)CC)nc21", 43.3],
  ["CCN(CC)CC[n+]1c(SCC(=O)NCCCNC(=N)N)[nH]c2c(C)nc(N(CC)CC)nc21", 36.2],
  ["CCN(CC)c1nc(C)c2[nH]c(SCC(=O)NCCNC(=N)N)nc2n1", 57.1],
  ["CCN(CC)CC[n+]1c(SCC(=O)NCCNC(=N)N)[nH]c2c(C)nc(N(CC)CC)nc21", 34.9],
  ["CCN(CC)c1nc(C)c2[nH]c(SCC(=O)NCCNC(=N)N)[n+](CCCN(C)C)c2n1", 50.2],
  ["CCN(CC)c1nc(C)c2[nH]c(SCC(=O)NCCCN)[n+](CCCN(C)C)c2n1", 48.7],
  ["CCN(CC)c1nc(C)c2[nH]c(SCC(=O)NCCCNC(=N)N)[n+](CCCN(C)C)c2n1", 48.8],
  ["CCN(CC)c1nc(C)c2[nH]c(SCC(=O)NCCN)nc2n1", 65.7]
]}
